Answer each item with its documented % inh. (rat B1R) 10 μM.
Biological target: rat B1R (Rattus norvegicus)
Construct: expressed in transfected cells; host or cells: CHO K1 cells
Sequence (P97583 1-337): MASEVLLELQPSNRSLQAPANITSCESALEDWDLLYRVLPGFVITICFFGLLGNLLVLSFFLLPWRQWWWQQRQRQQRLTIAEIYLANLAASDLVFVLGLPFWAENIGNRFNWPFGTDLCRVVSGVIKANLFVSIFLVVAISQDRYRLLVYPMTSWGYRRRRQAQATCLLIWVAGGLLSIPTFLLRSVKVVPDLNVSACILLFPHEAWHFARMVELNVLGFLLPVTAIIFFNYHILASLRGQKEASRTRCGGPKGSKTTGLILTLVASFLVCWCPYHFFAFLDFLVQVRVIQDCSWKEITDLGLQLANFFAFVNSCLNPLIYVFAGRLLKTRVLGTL
Assay: FLIPR Ca2+ functional study on bradykinin receptor 1 (rB1R CHO K1 cells)
Type: cell-based
Details: % inhibition rat B1R at 10 μM, 10 µM
Numbers only, in %.

Check out these entries, answers already filled in.
Compound	Tgt	Quantity Unit	% inh. (rat B1R) 10 μM
COc1cc(C)c(S(=O)(=O)N(C)CCOc2nccc(N(C)CCN3CCC(c4ccccc4)(N(C)C)CC3)n2)c(C)c1 [G_CC-098]	rat B1R (Rattus norvegicus)	%	79
COc1cc(C)c(S(=O)(=O)N(C)CCOc2ccnc(N(C)CCN3CCC(c4ccccc4)(N(C)C)CC3)n2)c(C)c1 [Example H-003]	rat B1R (Rattus norvegicus)	%	71
COc1cc(C)c(S(=O)(=O)N(C)CCOc2nccc(N(C)CCN3CCC(c4ccccc4)(N(C)C)CC3)n2)c(C)c1 [Example G-003]	rat B1R (Rattus norvegicus)	%	112

Input line: Name the recorded % inh. (rat B1R) 10 μM for COc1cc(C)c(S(=O)(=O)N2CCCCC2COc2ccnc(N(C)CCN3CCC(c4ccccc4)(N(C)C)CC3)n2)c(C)c1 (stereo not shown) [Example H-004] .
Output line: 93
